Source of measurements: the NIST ThermoML archive (doi:10.1021/je101184s)

# Protocol: relative permittivity at zero frequency (dimensionless)
# Setup conditions: 298.15 K; 101.33 kPa; Liquid; Coaxial cylinder capacitor
Property measured: relative permittivity at zero frequency
# print the numeric value only

Below, 5 compounds whose answers are already recorded.
CCCCn1cc[n+](C)c1C.F[P-](F)(F)(F)(F)F [1-butyl-2,3-dimethylimidazolium hexafluorophosphate]    9.4
CCCCn1cc[n+](C)c1C.O=S(=O)([N-]S(=O)(=O)C(F)(F)F)C(F)(F)F    14
CCCC[N+]1(C)CCCC1.N#CN=C=[N-] [1-butyl-1-methylpyrrolidinium dicyanamide]    18
CCCCS(=O)(=O)[O-].CCn1cc[n+](C)c1 [1-ethyl-3-methylimidazolium butylsulfonate]    30
CC(O)C(=O)O.OCCN(CCO)CCO [triethanolamine lactate]    59.7

Task: What value of relative permittivity at zero frequency has been reported for the following compound? Cl.Cn1ccnc1 [1-methylimidazolium chloride]
Result: 13.8

Task: Using the record for CCCCn1cc[n+](C)c1.F[B-](F)(F)F [1-butyl-3-methylimidazolium tetrafluoroborate] , report its relative permittivity at zero frequency.
Result: 13.9

Task: Fill in: relative permittivity at zero frequency of CC(O)C(=O)[O-].[NH3+]CCO (stereo unspecified) [2-hydroxyethylammonium lactate] is ___
Result: 85.6

Task: Which measured relative permittivity at zero frequency value corresponds to CCCCn1cc[n+](C)c1C.F[B-](F)(F)F [1-butyl-2,3-dimethylimidazolium tetrafluoroborate] ?
Result: 13.3

---

Consider the following molecules and their measured relative permittivity at zero frequency readings.
# Protocol: relative permittivity at zero frequency (dimensionless)
# Setup conditions: 298.15 K; 101.33 kPa; Liquid; Coaxial cylinder capacitor
// keep it numeric: no unit symbol after the value

CCCCn1cc[n+](C)c1.F[P-](F)(F)(F)(F)F [1-butyl-3-methylimidazolium hexafluorophosphate]    14

# context switch: different molecule, same relative permittivity at zero frequency
Task: Could you tell me which relative permittivity at zero frequency is on file for CCOP(=O)([O-])OCC.CCn1cc[n+](C)c1 [1-ethyl-3-methylimidazolium diethyl phosphate] ?
Result: 16.9

---

# Protocol: relative permittivity at zero frequency (dimensionless)
# Setup conditions: 298.15 K; 101.33 kPa; Liquid; Coaxial cylinder capacitor
Could you mark each record 1 if its relative permittivity at zero frequency falls strictly under 30, and -1 if it equals or exceeds it?

Consider the following illustrative entries.
O=[N+]([O-])[O-].[NH3+]CCO [ethanolammonium nitrate]    -1
CCn1cc[n+](C)c1.O=S(=O)([O-])O [1-ethyl-3-methylimidazolium hydrogen sulfate]    1
CC(=O)O.OCCN(CCO)CCO [triethanolammonium acetate]    -1

API: the following record is the query input.
Task: hey, is relative permittivity at zero frequency for CCOS(=O)(=O)[O-].CCn1cc[n+](C)c1 [1-ethyl-3-methylimidazolium ethyl sulfate] lower than 30 or not?
Result: -1

---

# Protocol: relative permittivity at zero frequency (dimensionless)
# Setup conditions: 298.15 K; 101.33 kPa; Liquid; Coaxial cylinder capacitor
Numbers after ± are expanded uncertainties.
Each entry below carries its recorded relative permittivity at zero frequency.

Below: 2 compounds and their reported relative permittivity at zero frequency.
CCn1cc[n+](C)c1.O=S(=O)([O-])C(F)(F)F [1-ethyl-3-methylimidazolium trifluoromethanesulfonate]    16.5 ± 1
CCn1cc[n+](C)c1C.O=S(=O)([N-]S(=O)(=O)C(F)(F)F)C(F)(F)F    12.8 ± 0.8

Task: Given the entry CCCCC[N+](CC)(CC)CC.O=S(=O)([N-]S(=O)(=O)C(F)(F)F)C(F)(F)F [triethylpentylammonium bis(trifluoromethylsulfonyl)imide] , report its measured relative permittivity at zero frequency.
Result: 12.5 ± 1.4

Task: Field request: relative permittivity at zero frequency | item: CC(=O)[O-].[NH3+]CCO [2-hydroxyethylammonium acetate]
Result: 58.3 ± 5

Task: For the compound CCCCn1c(C)c(C)[n+](C)c1C.O=S(=O)([N-]S(=O)(=O)C(F)(F)F)C(F)(F)F , what relative permittivity at zero frequency is on record?
Result: 15 ± 1.6

Task: Recorded relative permittivity at zero frequency of CCCC[n+]1c(C)c(C)n(C)c1C.F[B-](F)(F)F , please.
Result: 12 ± 1.2

Task: Quick one: relative permittivity at zero frequency of Br.Cn1ccnc1 [1-methylimidazolium bromide] ?
Result: 16.6 ± 2.4

Task: Name the reported relative permittivity at zero frequency value associated with the compound CCCCn1cc[n+](C)c1.N#C[S-] [1-butyl-3-methylimidazolium thiocyanate]
Result: 13.7 ± 1.6

Task: I would be grateful if you could share the reported relative permittivity at zero frequency for COP(=O)([O-])OC.Cn1cc[n+](C)c1 [1,3-dimethylimidazolium dimethylphosphate] .
Result: 29.6 ± 3

Task: Field request: relative permittivity at zero frequency | item: CCCCn1cc[n+](C)c1.O=S(=O)([O-])C(F)(F)F [1-butyl-3-methylimidazolium trifluoromethanesulfonate]
Result: 12.9 ± 1

Task: Form field: reported relative permittivity at zero frequency of C[n+]1ccn(CCO)c1.F[B-](F)(F)F [1-(2-hydroxyethyl)-3-methylimidazolium tetrafluoroborate]
Result: 23.3 ± 2
